Tested on: HEK293 cells overexpressing APOL1 G2
measurement description: APOL1 G2 HEK293 cell rescue assay (reversal of cell death caused by overexpression of APOL1)
Assay type: cell-based
study conditions: Homo sapiens, HEK293, HEK293 overexpressing APOL1 G2; geometric mean of at least 2 assay runs; † = single assay run
outcome measure: pEC50
Worth noting: pEC50 values are minus log10 of concentrations stated in mol/L.

Sample records with pEC50:
compound | study target | pEC50
Cn1c(=O)[nH]c2cc(OCCN3CCC4(CC3)C(=O)Nc3ccc(Cl)cc34)cnc21 | HEK293 cells overexpressing APOL1 G2 | 7.04
C[C@]1(O)C[C@@H](N2C(=O)NCc3cc(OCCN4CCC5(CC4)C(=O)Nc4ccc(Cl)cc45)cc(C(F)(F)F)c32)C1 | HEK293 cells overexpressing APOL1 G2 | 7.55
C[C@]1(O)C[C@@H](n2cnc3cc(OCCN4CCC5(CC4)C(=O)Nc4ccc(C#N)cc45)cc(C(F)(F)F)c32)C1 | HEK293 cells overexpressing APOL1 G2 | 7.83
O=C(c1ccc(OCCN2CCC3(CC2)C(=O)Nc2ccc(Cl)cc23)cc1F)N1CC2(C1)CS(=O)(=O)C2 | HEK293 cells overexpressing APOL1 G2 | 7.11
O=C1Nc2ccc(Cl)cc2C12CCN(CCOc1ccc3c(cnn3C3COC3)c1)CC2 | HEK293 cells overexpressing APOL1 G2 | 6.91
C[C@]1(O)C[C@@H](N2C(=O)C3(CC3)c3cc(OCCN4CCC5(CC4)C(=O)Nc4ccc(Cl)cc45)cnc32)C1 | HEK293 cells overexpressing APOL1 G2 | 7.27
O=C1CCc2cc(OCCN3CCC4(CC3)C(=O)Nc3ccc(Cl)cc34)cnc2N1C1CC(O)(C2CC2)C1 (centres unmarked) | HEK293 cells overexpressing APOL1 G2 | 7.67
CN1C(=O)CCc2cc(OCCN3CCC4(CC3)C(=O)Nc3ccc(Cl)cc34)cnc21 | HEK293 cells overexpressing APOL1 G2 | 7.39
CS(=O)(=O)c1ccc(OCCN2CCC3(CC2)C(=O)Nc2ccc(Cl)cc23)cc1C(F)CF (centres unmarked) [Compound 217] | HEK293 cells overexpressing APOL1 G2 | 7.49
O=C1CCc2cc(OCCN3CCC4(CC3)C(=O)Nc3ccc(C(F)F)cc34)cnc2N1C1CC(CO)C1 (single isomer, unassigned) [Compound 309] | HEK293 cells overexpressing APOL1 G2 | 7.25

Lookup: What pEC50 value was documented for this compound, `CS(=O)(=O)c1ccc(OCCN2CCC3(CC2)C(=O)Nc2ccc(Cl)cc23)cc1C(F)(F)F` ?
Found: 7.77

Lookup: What would you report for CC1(O)CC(CN2C(=O)CCc3cc(OCCN4CCC5(CC4)C(=O)Nc4ccc(C(F)F)cc45)cnc32)C1 (single isomer, unassigned) [Compound 311] ?
Found: 7.42

Lookup: And what about the compound `C[C@]1(O)C[C@@H](n2ccc3cc(OCCN4CCC5(CC4)C(=O)Nc4ccc(Cl)cc45)cnc32)C1` ?
Found: 7.60

Lookup: Entry `CC(C)(O)CN1C(=O)CCc2cc(OCCN3CCC4(CC3)C(=O)Nc3ccc(Cl)cc34)cnc21` please
Found: 7.55
